Measured cell viability values are reported for all entries that follow.
- Test system: SEM cells
- Test Details: cell viability relative to DMSO control; higher = less cytotoxic
- Condition Info: HPLM + 10% dialyzed FBS; 48 h; 0.0211 µM
Quantity Kind: cell viability (%)

Compound	Assay System	Endpoint Unit	Observed Value
COc1cc2nccc(Oc3ccc(NC(=O)Nc4cc(C)on4)c(Cl)c3)c2cc1OC	SEM cells	%	107
ClC1=CC=C(CCCOC/2=N/NC(=O)C(=C2NCC3=CN=CC=C3)/Br)C=C1	SEM cells	%	115
Clc1ccc(C2(c3ccc(-c4cn[nH]c4)cc3)CCNCC2)cc1	SEM cells	%	106
O=[N+]([O-])c1cn2c(n1)OC[C@@H](OCc1ccc(OC(F)(F)F)cc1)C2	SEM cells	%	115
Cn1c2ccccc2c2c3c(c4c5ccccc5n(CCC#N)c4c21)CNC3=O	SEM cells	%	119
CNC(=O)[C@H](Cc1ccccc1)NC(=O)[C@H](CC(C)C)[C@H](CSc1cccs1)C(=O)NO	SEM cells	%	96
COc1ccc(/C=C\c2cc(OC)c(OC)c(OC)c2)cc1O	SEM cells	%	27.9
Cc1c(C(=O)Nc2ccc(N3C[C@@H](C)O[C@@H](C)C3)nc2)cccc1-c1ccc(OC(F)(F)F)cc1	SEM cells	%	133
O=C(NC1CCOCC1)c1ccc(-c2cc(-c3c[nH]nc3-c3ccccn3)ccn2)cc1	SEM cells	%	115
C1Cc2[nH]nc(-c3nn[nH]n3)c2C1	SEM cells	%	114
Cc1c[nH]c(/C=C2\C(=O)Nc3ccccc32)c1CCC(=O)O	SEM cells	%	103
Cl.c1cnc2cc3c(cc2n1)C1CNCC3C1	SEM cells	%	104
COc1cc2c(Nc3ccc(NC(=O)c4ccccc4)cc3)ncnc2cc1OCCCN1CCOCC1	SEM cells	%	140
C[N]1C=NC=C1[C@@](N)(C2=CC=C(Cl)C=C2)C3=CC=C4N(C)C(=O)\C=C(\C5=CC=CC(=C5)Cl)C4=C3	SEM cells	%	103
NC1CCC(N[C@@H]2C[C@H]2c2ccccc2)CC1 (some centres undefined)	SEM cells	%	87.5
O=C(Nc1ccc(OC(F)(F)F)cc1)c1sccc1NCc1ccnc2ccccc12	SEM cells	%	127
CCC1=C[C@@H]2CN(C1)Cc1c([nH]c3ccccc13)[C@@](C(=O)OC)(c1cc3c(cc1OC)N(C)[C@H]1[C@@](O)(C(=O)OC)[C@H](OC(C)=O)[C@]4(CC)C=CCN5CC[C@]31[C@@H]54)C2	SEM cells	%	92.7
C#Cc1cccc(Nc2ncnc3cc(OCCOC)c(OCCO)cc23)c1	SEM cells	%	117
CCC(=O)O[C@@]1([C@@H](C)C[C@H]2[C@@H]3CCC/4=C/C(=O)/C=C\[C@]4(C)[C@@]3(F)[C@@H](O)C[C@]12C)C(=O)CCl	SEM cells	%	57.7

====

Measured cell viability values are reported for all entries that follow.
- Tested on: SEM cells
- Test Details: cell viability relative to DMSO control; higher = less cytotoxic
- Condition Info: RPMI 5 mM glucose + 10% dialyzed FBS; 48 h; 0.0211 µM
Quantity Kind: cell viability (%)

Compound	Quantity Kind	Endpoint Unit	Observed Value
COc1nc(-c2ccc3c(c2)OCO3)n(-c2ccc(NC(=O)CSc3ccccc3)cc2)n1	cell viability	%	119
CO[C@H]1C[C@@H]2CC[C@@H](C)[C@@](O)(O2)C(=O)C(=O)N2CCCC[C@H]2C(=O)O[C@H]([C@H](C)C[C@@H]2CC[C@@H](OP(C)(C)=O)[C@H](OC)C2)CC(=O)[C@H](C)/C=C(\C)[C@@H](O)[C@@H](OC)C(=O)[C@H](C)C[C@H](C)/C=C/C=C/C=C/1C	cell viability	%	108
O=C(Cc1cccc(OC(F)(F)F)c1)Nc1ccc(CCCCc2nnc(NC(=O)Cc3ccccn3)s2)nn1	cell viability	%	91.8
Cc1ccc(C(C)(O)c2nc3ccccc3s2)c(C)c1 (centres undefined)	cell viability	%	114
O=C(NC1CCNCC1)c1n[nH]cc1NC(=O)c1c(Cl)cccc1Cl	cell viability	%	115
O=C1c2c(O)cccc2[C@H]([C@@H]2O[C@H](CO)[C@@H](O)[C@H](O)[C@H]2O)c2cc(CO)cc(O)c21	cell viability	%	96.7
CN[C@H](CC(C)C)C(=O)N[C@H]1C(=O)N[C@@H](CC(N)=O)C(=O)N[C@H]2C(=O)N[C@H]3C(=O)N[C@H](C(=O)N[C@H](C(=O)O)c4cc(O)cc(O)c4-c4cc3ccc4O)[C@H](O)c3ccc(c(Cl)c3)Oc3cc2cc(c3O[C@@H]2O[C@H](CO)[C@@H](O)[C@H](O)[C@H]2O[C@H]2C[C@](C)(N)[C@H](O)[C@H](C)O2)Oc2ccc(cc2Cl)[C@H]1O	cell viability	%	138
Clc1ccc(C2(c3ccc(-c4cn[nH]c4)cc3)CCNCC2)cc1	cell viability	%	92.7
Cc1ccc(NC(=O)C2(c3ccc4c(c3)OC(F)(F)O4)CC2)nc1-c1cccc(C(=O)O)c1	cell viability	%	107
CCC(=O)O[C@@]1([C@@H](C)C[C@H]2[C@@H]3CCC/4=C/C(=O)/C=C\[C@]4(C)[C@@]3(F)[C@@H](O)C[C@]12C)C(=O)CCl	cell viability	%	49.4
C[N]1C=NC=C1[C@@](N)(C2=CC=C(Cl)C=C2)C3=CC=C4N(C)C(=O)\C=C(\C5=CC=CC(=C5)Cl)C4=C3	cell viability	%	108
COc1cc2nccc(Oc3ccc(NC(=O)Nc4ccc(F)cc4F)c(F)c3)c2cc1OC	cell viability	%	62.2
Cc1nc(Nc2ncc(C(=O)Nc3c(C)cccc3Cl)s2)cc(N2CCN(CCO)CC2)n1	cell viability	%	99.6
O=C1Nc2ccccc2/C1=C1\Nc2ccccc2C1=O	cell viability	%	85.4

====

- System: NOMO1
- Test Details: cell viability relative to DMSO control; higher = less cytotoxic
- Condition Info: RPMI 5 mM glucose + 10% dialyzed FBS; 48 h; 0.0632 µM
Measured cell viability values are reported for all entries that follow.

Test Smiles	Endpoint Unit	cell viability
O=C(NC1CCNCC1)c1n[nH]cc1NC(=O)c1c(Cl)cccc1Cl	%	117
CSC1=CC(=CC=C1)NC2=NC3=C(C=N2)/C=C(C(=O)N3C)/C4=C(Cl)C=CC=C4Cl	%	120
OC[C@H]1O[C@@H](Oc2ccc(O)cc2)[C@H](O)[C@@H](O)[C@@H]1O	%	82.3
COc1cc(N2CCC(C(N)=O)CC2)ccc1Nc1nc(N)c(Cl)c(Nc2ccccc2[S+](=O)([O-])C(C)C)n1	%	96.4
COc1cc2nccc(Oc3ccc(NC(=O)Nc4ccc(F)cc4F)c(F)c3)c2cc1OC	%	94.5
CC(C)C[C@H](CN)CC(=O)O	%	95.8
COc1nc(-c2ccc3c(c2)OCO3)n(-c2ccc(NC(=O)CSc3ccccc3)cc2)n1	%	105
COC(=O)N1CCN(Cc2cccc(NC(=O)Nc3ccc(C)nc3)c2F)CC1	%	99.6

====

Measured AUC of viability dose-response curve values are reported for all entries that follow.
- Test system: SEM cells
- Test Details: AUC of viability dose-response curve (% viability x log10 dose units); higher = less sensitive
- Condition Info: RPMI 5 mM glucose + 10% FBS; 48 h

Molecule	AUC of viability dose-response curve
O=C(NOC[C@H](O)CO)c1ccc(F)c(F)c1Nc1ccc(I)cc1F	362
C[C@H]1O[C@H](O[C@H]2[C@H](O)[C@@H](O)[C@H](O[C@@H]2CO)O[C@H]3[C@H](O)[C@@H](O)C(O)O[C@@H]3CO)[C@H](O)[C@@H](O)[C@@H]1N[C@H]4\C=C(CO)/[C@@H](O)[C@H](O)[C@H]4O (some centres undefined)	456
CC(C)C[C@H](CN)CC(=O)O	452
Cc1[nH]c(/C=C2\C(=O)Nc3ccc([S+](=O)([O-])N(C)c4cccc(Cl)c4)cc32)c(C)c1C(=O)N1CCN(C)CC1	379

====

- Tested on: SEM cells
- Test Details: cell viability relative to DMSO control; higher = less cytotoxic
- Condition Info: RPMI 5 mM glucose + 10% dialyzed FBS; 48 h; 0.0211 µM
Quantity Kind: cell viability (%)

Compound	Quantity Kind	Observed Value
CN(N=O)C(=O)N[C@H]1C(O)OC(CO)[C@@H](O)[C@@H]1O (some centres undefined)	cell viability	63.8
CCNC(=O)C[C@@H]1\N=C(C2=CC=C(Cl)C=C2)/C3=C(C=CC(=C3)OC)[N]4C(=NN=C14)C	cell viability	105
ClC1=CC=C(CCCOC/2=N/NC(=O)C(=C2NCC3=CN=CC=C3)/Br)C=C1	cell viability	112
Cc1ccc(-n2nc(C(C)(C)C)cc2NC(=O)Nc2ccc(OCCN3CCOCC3)c3ccccc23)cc1	cell viability	94.1
COc1ccc(CCN2CCN(CCCc3ccccc3)CC2)cc1OC	cell viability	134
CNC(=O)[C@H](Cc1ccccc1)NC(=O)[C@H](CC(C)C)[C@H](CSc1cccs1)C(=O)NO	cell viability	82.2
CC(C)C[C@H](CN)CC(=O)O	cell viability	103
COC(=O)N1CCN(Cc2cccc(NC(=O)Nc3ccc(C)nc3)c2F)CC1	cell viability	106
COc1cc(N2CCC(O)CC2)ccc1Nc1cc(Nc2ccccc2[S+](=O)([O-])C(C)C)c2cc[nH]c2n1	cell viability	96.8
